Data origin: patent US20260274807A1

# TESTED_SYSTEM: UniProt:P62508
# Sequence (P62508 1-458): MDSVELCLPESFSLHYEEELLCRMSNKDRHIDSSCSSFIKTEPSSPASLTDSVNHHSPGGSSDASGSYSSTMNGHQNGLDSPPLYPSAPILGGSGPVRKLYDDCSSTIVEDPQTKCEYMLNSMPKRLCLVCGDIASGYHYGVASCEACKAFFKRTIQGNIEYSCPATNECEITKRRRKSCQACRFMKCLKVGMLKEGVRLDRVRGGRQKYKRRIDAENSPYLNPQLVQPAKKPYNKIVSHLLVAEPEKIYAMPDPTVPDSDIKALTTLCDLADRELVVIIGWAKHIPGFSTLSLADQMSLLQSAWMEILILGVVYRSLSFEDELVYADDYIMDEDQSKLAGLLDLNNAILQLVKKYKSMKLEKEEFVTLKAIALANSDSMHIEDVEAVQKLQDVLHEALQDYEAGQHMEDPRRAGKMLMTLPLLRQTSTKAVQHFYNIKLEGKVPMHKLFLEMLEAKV
# ASSAY_SUMMARY: ERRE luciferase reporter assay in HEK293 cells transfected with pcDNA3.1 ERRγ
# CONDITION_SET: HEK293 cells transfected with ERRE reporter construct and pcDNA3.1 ERRγ; compound for 24 hours; luciferase activity
# Procedure: HEK293 cells were maintained in Dulbecco's modified Eagles medium (DMEM) supplemented with 10% fetal bovine serum at 37° C. under […]. […] Cells were transfected with ERRE reporter construct and pcDNA3.1 ERRα or ERRγ. […] Luciferase activity was measured using the One-Glo Tox luciferase reporter assay system (Promega) and EC50s were calculated using GraphPad Prism software.
pEC50: −log10 of the molar value.
MEASURED_PARAMETER: pEC50

Examples with their reported pEC50 follow.
Cc1ccc(-c2nnc(-c3ccc(Cl)cc3)s2)cc1 [Entry 1048]    > 6.00
COc1ccc(-c2nnc(-c3ccc(OC)cc3)o2)cc1 [Entry 30]    > 6.00
COc1ccccc1-c1nnc(-c2ccccc2)s1 [Entry 1013]    > 6.00
Cc1ccc(-c2nnc(-c3ccc(B(O)O)cc3)s2)cc1 [Entry 1055]    > 6.00
COc1ccc(-c2nnc(-c3ccccc3)s2)c(N)c1 [Entry 1026]    < 5.30

Parameters: items (list). Returns: pEC50 for each item.
1. FC(F)(F)c1ccc(-c2nnc(-c3cccc4ncccc34)s2)cc1 [Entry 1062]
2. Cc1ccc(-c2nnc(-c3ccc(C)o3)o2)cc1 [Entry 32]
3. COc1ccc(-c2nnc(-c3ccnc4ccccc34)o2)cc1 [Entry 22]
4. FC(F)(F)c1cccc(-c2nnc(-c3cccs3)o2)c1 [Entry 58]
5. CC(C)(C)c1ccc(-c2nnc(-c3ccccc3[N+](=O)[O-])o2)cc1 [Entry 83]
6. COc1ccc(-c2nnc(-c3ccco3)s2)cc1 [Entry 1019]
7. Cc1ccc(-c2nnc(-c3scnc3C)s2)cc1 [Entry 1080]

> 6.00
> 6.00
> 6.00
> 6.00
> 6.00
> 6.00
> 6.00

Parameters: items (list). Returns: pEC50 for each item.
1. Cc1ccc(-c2nnc(-c3ccccc3[N+](=O)[O-])o2)o1 [Entry 76]
2. COc1cccc(-c2nnc(-c3cccc(C(F)(F)F)c3)o2)c1 [Entry 66]

1: 5.30 to 6.00; 2: 5.30 to 6.00
